- SYSTEM UNDER TEST: human 5-HT2C receptor (Homo sapiens)
- Sequence (P28335 33-458): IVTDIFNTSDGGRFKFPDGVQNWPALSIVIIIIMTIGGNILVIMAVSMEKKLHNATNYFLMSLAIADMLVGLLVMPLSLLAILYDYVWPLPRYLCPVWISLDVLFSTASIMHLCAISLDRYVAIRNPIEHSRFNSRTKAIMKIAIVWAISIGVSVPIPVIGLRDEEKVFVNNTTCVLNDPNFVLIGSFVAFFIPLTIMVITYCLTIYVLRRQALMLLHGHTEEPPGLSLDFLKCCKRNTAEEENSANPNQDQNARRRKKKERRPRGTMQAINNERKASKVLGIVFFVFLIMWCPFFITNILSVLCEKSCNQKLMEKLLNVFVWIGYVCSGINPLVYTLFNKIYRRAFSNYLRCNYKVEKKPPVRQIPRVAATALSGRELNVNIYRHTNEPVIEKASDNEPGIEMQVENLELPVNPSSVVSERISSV
- PROCEDURE TEXT: 5-HT2C receptor-stimulated calcium mobilization (FLIPR) in CHO cells;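 also: Fluo-3-AM fluorescence read on FLIPR every 1 s, agonist added after 10 baseline reads, response taken as peak minus lowest raw fluorescence count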
- Format: cell-based
- CONDITION SUMMARY: calcium mobilization, CHO cells stably expressing human 5-HT2C; read-out: 5-HT2C Function EC50
OUTCOME MEASURE: log10 EC50 (log10 of the value in nM)
# values: log10(EC50), units nM

Answered examples (5):
>  <MOLECULE>
COc1cccc(-c2cc(C)cc3c2OC(CN)C3)c1OC (racemic) [Example 294]

>  <log10 EC50>
0.90

$$$$
>  <MOLECULE>
CNCC1Cc2cccc(-c3ccc(Cl)cc3)c2O1 (racemic) [Example 420]

>  <log10 EC50>
2.70

$$$$
>  <MOLECULE>
NCC1Cc2cccc(Cc3ccccc3)c2O1 (single isomer, unassigned; (-)) [Example 17]

>  <log10 EC50>
2.00

$$$$
>  <MOLECULE>
NCC1Cc2cc(F)cc(-c3ccccc3C(F)(F)F)c2O1 (racemic) [Example 108]

>  <log10 EC50>
1.59

$$$$
>  <MOLECULE>
NCC1Cc2cc(F)cc(-c3ccccn3)c2O1 (racemic) [Example 205]

>  <log10 EC50>
2.45

$$$$

Exam item: Please look up its log10 EC50: CCNCC1Cc2cc(F)cc(-c3c(Cl)cccc3Cl)c2O1 (racemic) [Example 234]
Marked response: 1.04

Exam item: Next molecule up: NCC1Cc2cc(Cl)cc(-c3ccc(Cl)cc3Cl)c2O1 (single isomer, unassigned; (-)) [Example 252]
Marked response: 0.48

Exam item: Next molecule up: COc1ccc(-c2cccc3c2OC(CN)C3)c(OC)c1 (racemic) [Example 143]
Marked response: 0.00

Exam item: Next molecule up: NCC1Cc2cccc(-c3ccc(F)cc3F)c2O1 (racemic) [Example 146]
Marked response: 0.70

====

Where a name gives a salt, the structure may show the parent alone.
The entries below are paired with their reported melting point.

>  <COMPOUND>
NCC1Cc2cccc(-c3ccsc3)c2O1 (racemic) (as salt: hydrochloride) [Example 44]

>  <melting point>
> 200 °C

$$$$
>  <COMPOUND>
NCC1Cc2cc(F)cc(-c3ccccc3Cl)c2O1 (racemic) (as salt: hydrochloride) [Example 100]

>  <melting point>
> 250 °C (dec.)

$$$$
>  <COMPOUND>
Cc1ccc(-c2cccc3c2OC(CN)C3)cc1 (single isomer, unassigned; (+)) (as salt: hydrobromid) [Example 71]

>  <melting point>
> 250 °C

$$$$
>  <COMPOUND>
Cc1cccc(-c2cccc3c2OC(CN)C3)c1 (racemic) (as salt: hydrochloride) [Example 41]

>  <melting point>
> 210 °C (dec.)

$$$$
>  <COMPOUND>
Cc1cccc(-c2cccc3c2OC(CN)C3)c1 (single isomer, unassigned; (-)) (as salt: hydrochloride) [Example 43]

>  <melting point>
194 to 196 °C

$$$$

Exam item: Please look up its melting point: Cc1ccccc1-c1cccc2c1OC(CN)C2 (single isomer, unassigned; (+)) (as salt: hydrochloride) [Example 48]
Marked response: 211 to 212 °C

Exam item: Next compound up: COc1ccc(-c2cccc3c2OC(CN)C3)cc1 (racemic) (as salt: hydrochloride) [Example 79]
Marked response: 176 to 178 °C

Exam item: Next compound up: COc1ccc(-c2cccc3c2OC(CN)C3)cc1 (single isomer, unassigned; (-)) (as salt: hydrobromid) [Example 81]
Marked response: 185 to 188 °C
